METHOD DESCRIPTION: Concentration of pesticides and metabolites in hair of rats after 90-day gavage exposure to a pesticide mixture
Format: in vivo, rat
EXPERIMENTAL ENDPOINT: Exposure level from which detected in hair (µg/kg per day)
Output spec: scalar in µg/kg per day, unitless text.

compound_structure_string=Clc1ccc(C(c2ccc(Cl)cc2)C(Cl)(Cl)Cl)cc1 recorded_value=20

Now take the following molecule into account.
Given the molecule Clc1ccc(C(c2ccc(Cl)cc2)C(Cl)Cl)cc1 , what is its reported Exposure level from which detected in hair?
40

====

METHOD DESCRIPTION: Concentration of pesticides and metabolites in plasma of rats after 90-day gavage exposure to a pesticide mixture
Assay type: in vivo, rat
ASSAY CONTEXT: plasma
// values below are reported Exposure level from which detected in plasma
Output spec: scalar in µg/kg, unitless text.

Known results for compounds:
compound="CC1(C)C(C=C(Cl)Cl)C1C(=O)OCc1cccc(Oc2ccccc2)c1 (stereo not shown)" recorded_value=100
compound=Clc1ccc(C(c2ccc(Cl)cc2)C(Cl)Cl)cc1 recorded_value=40
compound="CC1(C)C(/C=C(\\Cl)C(F)(F)F)C1C(=O)OC(C#N)c1cccc(Oc2ccccc2)c1 (stereo not shown)" recorded_value=4

Now take the following compound into account.
Given the compound CC1(C)C(C=C(Cl)Cl)C1C(=O)OC(C#N)c1cccc(Oc2ccccc2)c1 (stereo not shown) , what is its reported Exposure level from which detected in plasma?
10

====

METHOD DESCRIPTION: Concentration of pesticides and metabolites in plasma of rats after 90-day gavage exposure to a pesticide mixture
Type: in vivo, rat
ASSAY CONTEXT: plasma; exposure expressed as mg/kg per day, concentration as ng/mL; detected values only
EXPERIMENTAL ENDPOINT: Slope (linear fit), concentration in plasma versus level of exposure
Form: value (number only, do not type unit).

Known results for molecules:
molecule=Oc1nc(Cl)c(Cl)cc1Cl recorded_value=109
molecule=Clc1ccc(C(c2ccc(Cl)cc2)C(Cl)(Cl)Cl)cc1 recorded_value=175
molecule="CC1(C)C(C=C(Cl)Cl)C1C(=O)OC(C#N)c1cccc(Oc2ccccc2)c1 (centres unmarked)" recorded_value=10.1

Given the molecule ClC(Cl)=C(c1ccc(Cl)cc1)c1ccc(Cl)cc1 , what is its reported Slope (linear fit), concentration in plasma versus level of exposure?
289

Also CC1(C)Cc2cccc(O)c2O1 ?
1.73

====

METHOD DESCRIPTION: Influence of hair pigmentation: concentration in white hair versus pigmented hair
Assay type: in vivo, rat
ASSAY CONTEXT: slope close to 1 = poor influence of pigmentation
Could you please mark Y for values of Slope, concentration in white hair versus pigmented hair below 1 and N for values at or above it?

// known answers, use as guide
compound="CC1(C)C(/C=C(\\Cl)C(F)(F)F)C1C(=O)OC(C#N)c1cccc(Oc2ccccc2)c1 (stereo not drawn) [λ-Cyhalothrin]" label_class=N
compound="CC1(C)C(C=C(Cl)C(F)(F)F)C1C(=O)O (stereo not drawn) [ClCF3CA]" label_class=Y
compound="CC(C)Oc1cc(-n2nc(C(C)(C)C)oc2=O)c(Cl)cc1Cl [Oxadiazon]" label_class=Y
compound="Oc1c(Cl)c(Cl)c(Cl)c(Cl)c1Cl [Pentachlorophenol]" label_class=Y
compound="CCOP(O)(=S)OCC [DETP, diethylthiophosphate]" label_class=Y

Now consider the entry below.
Is the reported Slope, concentration in white hair versus pigmented hair for Clc1ccc(C(c2ccc(Cl)cc2)C(Cl)(Cl)Cl)cc1 [p,p′-DDT, dichlorodiphenyltrichloroethane] strictly below 1?
Y

====

METHOD DESCRIPTION: Concentration of pesticides and metabolites in 24-h urine of rats after 90-day gavage exposure to a pesticide mixture
Assay type: in vivo, rat
ASSAY CONTEXT: urine
EXPERIMENTAL ENDPOINT: Exposure level from which detected in urine (µg/kg)
Output spec: scalar in µg/kg, unitless text.

Known results for compounds:
compound="O=C(Nc1ccc(F)cc1F)c1cccnc1Oc1cccc(C(F)(F)F)c1 [Diflufenican]" recorded_value=20
compound="N#Cc1nn(-c2c(Cl)cc(C(F)(F)F)cc2Cl)c(N)c1[S+]([O-])C(F)(F)F (stereo not shown) [Fipronil]" recorded_value=10
compound="Clc1ccc(C(c2ccc(Cl)cc2)C(Cl)(Cl)Cl)cc1 [p,p′-DDT, dichlorodiphenyltrichloroethane]" recorded_value=200

Given the compound ClC(Cl)=C(c1ccc(Cl)cc1)c1ccc(Cl)cc1 [p,p′-DDE, p,p′-dichlorodiphenyldichloroethylene] , what is its reported Exposure level from which detected in urine?
200

====

METHOD DESCRIPTION: Concentration of pesticides and metabolites in 24-h urine of rats after 90-day gavage exposure to a pesticide mixture
Type: in vivo, rat
ASSAY CONTEXT: urine; exposure expressed as mg/kg per day, concentration as ng/mL; detected values only
Protocol: Eight rats were randomly assigned to each of the experimental groups. A low-calorie water gel that contained the pesticides was administered via gavage to these rats three times per week for 90 days. […] Testing lower levels would not have been relevant because some compounds would not be detected anymore (analytical limitation). In addition, for some other compounds, no differences were detected in the current experiment between the lowest level of exposure and the background exposure of the controls. […]
// values below are reported Slope (linear fit), concentration in urine versus level of exposure

compound="CC1(C)C(C=C(Cl)C(F)(F)F)C1C(=O)O (stereo not drawn) [ClCF3CA]" recorded_value="1.6 E + 05"
compound="O=C(Nc1ccc(F)cc1F)c1cccnc1Oc1cccc(C(F)(F)F)c1 [Diflufenican]" recorded_value=99
compound="CCCN(CCC)c1c([N+](=O)[O-])cc(C(F)(F)F)cc1[N+](=O)[O-] [Trifluralin]" recorded_value=4
compound="CCOP(O)(=S)OCC [DETP, diethylthiophosphate]" recorded_value="9.9 E + 05"
compound="CC1(C)Cc2cccc(O)c2O1 [Carbofuran phenol]" recorded_value="1.0 E + 06"

Given the compound O=C(O)c1cccc(Oc2ccccc2)c1 [3-PBA, 3-phenoxybenzoic acid] , what is its reported Slope (linear fit), concentration in urine versus level of exposure?
1.5 E + 05

Also Cl[C@H]1[C@H](Cl)[C@@H](Cl)[C@H](Cl)[C@@H](Cl)[C@@H]1Cl [β-HCH, β-hexachlorocyclohexane] ?
6 297

Also N#Cc1nn(-c2c(Cl)cc(C(F)(F)F)cc2Cl)c(N)c1[S+]([O-])C(F)(F)F (stereo not drawn) [Fipronil] ?
2 016

Also CC(C)Oc1ccccc1O [2-IPP, 2-isopropoxyphenol] ?
1.0 E + 06

====

METHOD DESCRIPTION: Concentration of pesticides and metabolites in hair of rats after 90-day gavage exposure to a pesticide mixture
Assay type: in vivo, rat
ASSAY CONTEXT: exposure expressed as mg/kg per day, concentration as pg/mg, detected values only
EXPERIMENTAL ENDPOINT: Slope (linear fit), concentration in hair versus level of exposure

compound="CC1(C)C(C=C(Cl)Cl)C1C(=O)O (centres unmarked)" recorded_value=49.20
compound=ClC1=C(Cl)[C@]2(Cl)[C@@H]3[C@@H]4C[C@@H]([C@H]5O[C@@H]45)[C@@H]3[C@@]1(Cl)C2(Cl)Cl recorded_value=427.8
compound=Clc1ccc(C(c2ccc(Cl)cc2)C(Cl)(Cl)Cl)cc1 recorded_value=184.7
compound=Clc1ccc(C(c2ccc(Cl)cc2)C(Cl)Cl)cc1 recorded_value=24.0
compound=N#Cc1nn(-c2c(Cl)cc(C(F)(F)F)cc2Cl)c(N)c1S(=O)(=O)C(F)(F)F recorded_value=772

Given the compound CC1(C)C(/C=C(\Cl)C(F)(F)F)C1C(=O)OC(C#N)c1cccc(Oc2ccccc2)c1 (centres unmarked) , what is its reported Slope (linear fit), concentration in hair versus level of exposure?
5.050

Also ClC(Cl)=C(c1ccc(Cl)cc1)c1ccc(Cl)cc1 ?
273.5

Also CCCC1COC(Cn2cncn2)(c2ccc(Cl)cc2Cl)O1 (centres unmarked) ?
6.47

====

METHOD DESCRIPTION: Concentration of pesticides and metabolites in 24-h urine of rats after 90-day gavage exposure to a pesticide mixture
Format: in vivo, rat
ASSAY CONTEXT: urine; exposure expressed as mg/kg per day, concentration as ng/mL; detected values only
EXPERIMENTAL ENDPOINT: Slope (linear fit), concentration in urine versus level of exposure (E + 06)
Output spec: scalar in E + 06, unitless text.

Known results for compounds:
compound="CCOP(=O)(O)OCC [DEP, diethyl phosphate]" recorded_value=2.0
compound="CC1(C)C(C=C(Cl)Cl)C1C(=O)O (stereo not shown) [Cl2CA]" recorded_value=1.0

Now take the following compound into account.
Given the compound Oc1nc(Cl)c(Cl)cc1Cl [TCPy, 3,5,6-trichloro-2-pyridinol] , what is its reported Slope (linear fit), concentration in urine versus level of exposure?
2.5

====

METHOD DESCRIPTION: Concentration of pesticides and metabolites in plasma of rats after 90-day gavage exposure to a pesticide mixture
Assay type: in vivo, rat
ASSAY CONTEXT: plasma; exposure expressed as mg/kg per day, concentration as ng/mL; detected values only
Use 20 as the dividing line for Slope (linear fit), concentration in plasma versus level of exposure, with the line itself on the Y side and lower values as N.

// known answers, use as guide
compound="CC1(C)C(C=C(Cl)Cl)C1C(=O)OCc1cccc(Oc2ccccc2)c1 (centres unmarked) [Permethrin]" label_class=N
compound="O=S1OC[C@@H]2[C@H](CO1)[C@]1(Cl)C(Cl)=C(Cl)[C@]2(Cl)C1(Cl)Cl (stereo partly drawn) [β-Endosulfan, β-endosulfan]" label_class=N
compound="CC1(C)C(C=C(Cl)C(F)(F)F)C1C(=O)O (centres unmarked) [ClCF3CA]" label_class=N
compound="CC1(C)C(C=C(Cl)Cl)C1C(=O)O (centres unmarked) [Cl2CA]" label_class=Y

Decide: Slope (linear fit), concentration in plasma versus level of exposure of O=C(Nc1ccc(F)cc1F)c1cccnc1Oc1cccc(C(F)(F)F)c1 [Diflufenican] >= 20?
N
